The measured values listed here are drawn from patent US20260297085A1.

target: human JAK3 kinase domain (JH1) (Homo sapiens); construct: recombinantly generated catalytic kinase (also known as JH1) domain of human JAK1, JAK2, JAK3 and TYK2; experiment: JH1 biochemical assay for JAK3 (ADP-Glo kinase assay, recombinant JH1 catalytic domain, JAK3-974 peptide, 4 μM ATP); details: JH1 kinase domain, ADP-Glo
Sequence (P52333 822-1111 limits assumed): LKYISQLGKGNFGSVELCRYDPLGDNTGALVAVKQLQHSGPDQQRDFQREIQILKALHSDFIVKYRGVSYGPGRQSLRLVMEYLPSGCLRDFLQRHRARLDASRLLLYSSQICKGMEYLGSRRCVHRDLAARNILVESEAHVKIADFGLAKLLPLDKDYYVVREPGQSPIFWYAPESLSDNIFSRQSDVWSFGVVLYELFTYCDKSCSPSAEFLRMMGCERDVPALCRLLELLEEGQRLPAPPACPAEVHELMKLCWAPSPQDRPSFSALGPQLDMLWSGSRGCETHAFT
Listing of recorded IC50 by entry.

Examples with their reported IC50 follow.
# compound, IC50
data = [
    ("C[C@@H]1CN(c2ccnc3[nH]c(-c4cnn(C)c4)nc23)C(=O)[C@]1(C#N)C1CC1 [Example 181]", "100 to 1000 nM"),
    ("Cc1cc(-c2cc3c(N4CC[C@@](C#N)(C5CC5)C4=O)ccnn3c2)on1 [Example 11]", "100 to 1000 nM"),
    ("C[C@@H]1CN(c2ccnn3cc(-c4cnn(-c5cccnc5)c4)cc23)C(=O)[C@]1(C#N)C1CC1 [Example 159]", "100 to 1000 nM"),
]

Here is the next item to consider.
Query: Indicate its recorded IC50; the compound in question is C[C@@H]1CN(c2ccnn3cc(-c4cncc(O)c4)cc23)C(=O)[C@]1(C#N)C1CC1 [Example 53]
Reply: 100 to 1000 nM
